- measurementTarget: Axl (Homo sapiens)
- Construct: endogenous in cells; host or cells: HeLa cells
- Sequence (P30530 26-894): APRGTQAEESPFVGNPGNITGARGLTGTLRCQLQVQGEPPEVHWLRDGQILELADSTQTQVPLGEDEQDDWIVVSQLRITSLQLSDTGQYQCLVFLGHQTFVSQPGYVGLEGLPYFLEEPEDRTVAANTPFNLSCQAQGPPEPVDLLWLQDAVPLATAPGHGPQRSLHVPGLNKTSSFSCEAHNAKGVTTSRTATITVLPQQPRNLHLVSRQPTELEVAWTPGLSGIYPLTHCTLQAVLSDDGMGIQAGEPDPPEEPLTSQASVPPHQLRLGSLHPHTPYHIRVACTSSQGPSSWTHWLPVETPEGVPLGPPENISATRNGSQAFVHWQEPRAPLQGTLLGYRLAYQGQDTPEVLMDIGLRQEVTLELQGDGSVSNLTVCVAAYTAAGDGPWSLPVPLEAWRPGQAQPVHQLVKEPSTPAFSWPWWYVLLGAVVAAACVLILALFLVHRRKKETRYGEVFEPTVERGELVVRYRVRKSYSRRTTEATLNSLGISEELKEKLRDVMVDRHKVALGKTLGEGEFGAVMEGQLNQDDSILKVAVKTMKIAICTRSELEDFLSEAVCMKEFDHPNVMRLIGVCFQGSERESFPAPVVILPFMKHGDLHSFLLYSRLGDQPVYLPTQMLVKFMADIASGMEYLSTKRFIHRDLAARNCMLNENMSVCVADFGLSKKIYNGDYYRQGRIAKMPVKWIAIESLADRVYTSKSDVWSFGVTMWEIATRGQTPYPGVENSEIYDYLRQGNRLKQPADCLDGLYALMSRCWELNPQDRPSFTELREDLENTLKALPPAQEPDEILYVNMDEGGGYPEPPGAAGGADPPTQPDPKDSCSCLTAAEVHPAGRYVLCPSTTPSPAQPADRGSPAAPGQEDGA
- assayInfo: Phospho-Akt In-Cell Western Assay (inhibition of Axl activity after Axl-antibody cross-linking)
- Type: cell-based
- measurementParameters: Hela cells, phospho-Akt chemiluminescence normalized to relative cell number; compounds of formula (Ia), Table 1; read-out: IC50
measuredEndpoint: IC50

Ask | Fetch value of IC50 on Axl (Homo sapiens) for Nc1nc(Nc2ccc(N3CC[C@H]4CCCC[C@@H]4C3)c(F)c2)nn1-c1cc2c(nn1)-c1ccccc1CCC2 .
Reply | 1 to 10 µM

Ask | Report IC50 from Axl (Homo sapiens) testing of CN1CCc2ncc(Nc3nc(N)n(-c4cc5c(nn4)-c4ccccc4CCC5)n3)cc2C1
Reply | < 1 µM

Ask | Give IC50 only, for Nc1nc(Nc2ccc3c(c2)NC(=O)CCC3)nn1-c1cc2c(nn1)-c1ccccc1CCC2 , using Axl (Homo sapiens) data.
Reply | < 1 µM

Ask | # lookup: Axl (Homo sapiens) IC50, key = COCCNC(=O)c1ccc(Nc2nc(N)n(-c3cc4c(nn3)-c3ccccc3CCC4)n2)cc1
Reply | 1 to 10 µM

###

- measurementTarget: Axl (Homo sapiens, UniProt P30530)
- Construct: endogenous in cells; host or cells: HeLa cells
- assayInfo: Phospho-Akt In-Cell Western Assay (inhibition of Axl activity after Axl-antibody cross-linking)
- Format: cell-based
- measurementParameters: Hela cells, phospho-Akt chemiluminescence normalized to relative cell number; compounds of formula (Ia), Table 1; read-out: IC50
pIC50: −log10 of the molar value.
Give pIC50 for every item shown.

Ask | State its pIC50: CN1CCN(c2ccc(Nc3nc(N)n(-c4ncc5c(n4)-c4ccccc4CCC5)n3)cc2)CC1 [Compound 40]
Reply | 5.00 to 6.00

Ask | Quickly give me recorded pIC50 for COc1ccc2c(c1)CCCc1cc(-n3nc(Nc4ccc(OCCN5CCCC5)c(F)c4)nc3N)nnc1-2 [Compound 56]
Reply | 5.00 to 6.00

Ask | Could you please provide reported pIC50 for Nc1nc(Nc2ccc(N3CCCC(N4CCCC4)CC3)c(F)c2)nn1-c1cc2c(nn1)-c1ccccc1CCC2 (stereo not shown) [Compound 77] ? Thanks!
Reply | > 6.00

Ask | Give pIC50 for CCN(CC)C1CCN(c2ccc(Nc3nc(N)n(-c4cc5c(nn4)-c4ccccc4CCC5)n3)cc2F)C1 (stereo not shown) [Compound 32]
Reply | > 6.00

###

Kindly state IC50 for each of the entries shown.
- measurementTarget: Axl (Homo sapiens)
- Construct: endogenous in cells; host or cells: HeLa cells
- assayInfo: Phospho-Akt In-Cell Western Assay (inhibition of Axl activity after Axl-antibody cross-linking)
- Type: cell-based
- measurementParameters: Hela cells, phospho-Akt chemiluminescence normalized to relative cell number; compounds of formula (Ia), Table 1; read-out: IC50

Ask | For the compound Nc1nc(Nc2ccc(N3CCC(N4CCCC4)CC3)nc2)nn1-c1cc2c(nn1)-c1ccccc1CCC2 [Compound 29] , give its measured IC50 value.
Reply | 1 to 10 µM

Ask | Find the measured IC50 of Nc1nc(Nc2ccc(OCCN3CCCC3)c(F)c2)nn1-c1cc2c(nn1)-c1ccccc1CCC2 [Compound 48] and report it.
Reply | 1 to 10 µM

Ask | State, in one line, measured IC50 of CC(C)N1CCN(c2ccc(Nc3nc(N)n(-c4cc5c(nn4)-c4ccccc4CCC5)n3)cc2F)CC1 [Compound 111]
Reply | < 1 µM

Ask | Indicate its recorded IC50; the compound in question is Nc1nc(Nc2cccnc2)nn1-c1cc2c(nn1)-c1ccccc1CCC2 [Compound 93]
Reply | > 20 µM

Ask | Complete the entry with IC50 for CCN(CC)C1CCN(c2ccc(Nc3nc(N)n(-c4cc5c(nn4)-c4ccccc4CCC5)n3)cc2F)CC1 [Compound 36]
Reply | < 1 µM

Ask | Specify measured IC50 for Nc1nc(Nc2ccc(N3CCC(N4CCCC4)CC3)c(F)c2)nn1-c1cc2c(nn1)CCCc1ccccc1-2 [Compound 71] .
Reply | < 1 µM

Ask | Write down IC50 measured for item Cc1cc(Nc2nc(N)n(-c3cc4c(nn3)-c3ccccc3CCC4)n2)ccc1N1CCC(N2CCCC2)CC1 [Compound 106]
Reply | < 1 µM

Ask | Supply measured IC50 of CN1CCN(c2ccc(Nc3nc(N)n(C4=Nc5ccccc5Sc5ccccc54)n3)cc2)CC1 [Compound 50] in your reply.
Reply | 1 to 10 µM

Ask | Supply recorded IC50 for CN1CCC(N2CCN(c3ccc(Nc4nc(N)n(-c5cc6c(nn5)-c5ccccc5CCC6)n4)cc3F)CC2)CC1 [Compound 109] here.
Reply | < 1 µM

Ask | Dear colleague, please send me the reported IC50 for Nc1nc(Nc2ccc(C(=O)NCCN3CCCC3)cc2)nn1-c1cc2c(nn1)-c1ccccc1CCC2 [Compound 12] when you can.
Reply | < 1 µM

Ask | Indicate the recorded IC50 value for this compound: CN(C)Cc1nc2cc(Nc3nc(N)n(-c4cc5c(nn4)-c4ccccc4CCC5)n3)ccc2[nH]1 [Compound 13]
Reply | 1 to 10 µM

Ask | Entry CN(C)C1CCN(c2ccc(Nc3nc(N)n(-c4cc5c(nn4)-c4ccccc4CCC5)n3)cc2F)CC1 [Compound 61] needs its IC50 filled in; supply it.
Reply | < 1 µM

Ask | Consider the compound Cc1cc(Nc2nc(N)n(-c3cc4c(nn3)-c3ccccc3CCC4)n2)ccc1N1CCC(N2CCN(C)CC2)CC1 [Compound 114] and give its recorded IC50.
Reply | < 1 µM

Ask | Complete the entry with IC50 for Nc1nc(Nc2ccc(N3CCN(C4CC5CCC4C5)CC3)cc2)nn1-c1ncnc2c1CCCc1ccccc1-2 (stereo not drawn) [Compound 38]
Reply | < 1 µM

Ask | Please look at this compound and report its IC50: Nc1nc(Nc2ccc3c(c2)CCC(NC2CC4CCC2C4)CC3)nn1-c1cc2c(nn1)-c1ccccc1CCC2 (stereo not drawn) [Compound 23]
Reply | < 1 µM

###

Assignment: determine reported pIC50 for the given molecules.
- measurementTarget: Axl (Homo sapiens, UniProt P30530)
- Construct: endogenous in cells; host or cells: HeLa cells
- assayInfo: Phospho-Akt In-Cell Western Assay (inhibition of Axl activity after Axl-antibody cross-linking)
- Assay type: cell-based
- measurementParameters: inhibition of Axl activity; Table 1, compounds of formula (Ia); read-out: IC50
pIC50: −log10 of the molar value.

Ask | Tell me its pIC50 given Nc1nc(Nc2ccc(/C=C/CN3CCC(N4CCCC4)CC3)nc2)nn1-c1cc2c(nn1)-c1ccccc1CCC2 [Compound 141] as the entry.
Reply | 5.00 to 6.00

Ask | Name the recorded pIC50 of the item CN(C)C1CCN(C/C=C/c2ccc(Nc3nc(N)n(-c4cc5c(nn4)-c4ccccc4CCC5)n3)cn2)CC1 [Compound 146] in your answer.
Reply | > 6.00

Ask | Determine its reported pIC50: Nc1nc(Nc2ccc3c(c2)CCC(=O)CC3)nn1-c1cc2c(nn1)-c1ccccc1CCC2 [Compound 223]
Reply | > 6.00

Ask | Answer with the recorded pIC50 for the molecule listed here: Nc1nc(Nc2ccc(N3CCN4CCCCC4C3)c(F)c2)nn1-c1cc2c(nn1)-c1ccccc1SCC2 (stereo not drawn) [Compound 129]
Reply | > 6.00

Ask | Note down pIC50 recorded for Nc1nc(Nc2ccc3c(c2)CCC(N2CCC2)CC3)nn1-c1cc2c(nn1)-c1ccccc1CCC2 (stereo not drawn) [Compound 151]
Reply | > 6.00

Ask | Indicate its recorded pIC50; the molecule in question is Nc1nc(Nc2ccc3c(c2)CN(CC2CC2)CC3)nn1-c1cc2c(nn1)-c1ccccc1CCC2 [Compound 216]
Reply | > 6.00

Ask | # return recorded pIC50 for input Nc1nc(Nc2ccc(N3CCC(N4CCCC4)CC3)c(F)c2)nn1-c1cc2c(nn1)-c1ccc(Cl)cc1CCC2 [Compound 143]
Reply | > 6.00

Ask | Quick one: give measured pIC50 for CN1CC2CN(C3CCN(c4ccc(Nc5nc(N)n(-c6cc7c(nn6)-c6ccccc6CCC7)n5)cc4F)CC3)CC2C1 (stereo not drawn) [Compound 134]
Reply | > 6.00

Ask | Give reported pIC50 value for Nc1nc(Nc2ccc3c(c2)CCC(NC2CC2)CC3)nn1-c1cc2c(nn1)-c1ccccc1CCC2 (stereo not drawn) [Compound 225]
Reply | > 6.00

Ask | Identify measured pIC50 associated with CC1(C)COC2(CCCc3ncc(Nc4nc(N)n(-c5cc6c(nn5)-c5ccccc5CCC6)n4)cc3CC2)OC1 [Compound 247]
Reply | < 4.70

Ask | Complete the entry with pIC50 for Nc1nc(Nc2cnc(N3CCC(CN4CCCCC4)CC3)nc2)nn1-c1cc2c(nn1)-c1ccccc1CCC2 [Compound 148]
Reply | 5.00 to 6.00

Ask | Determine from records and report pIC50 for Nc1nc(Nc2ccc(/C=C/CN3CCCCC3)nc2)nn1-c1cc2c(nn1)-c1ccccc1CCC2 [Compound 138]
Reply | > 6.00

Ask | Give pIC50 for Nc1nc(Nc2cnc3c(c2)CC[C@H](N2CCCC2)CC3)nn1-c1cc2c(nn1)-c1ccccc1CCC2 [Compound 191]
Reply | > 6.00

Ask | Return value of pIC50 for input CN1CCC(N2CCc3ccc(Nc4nc(N)n(-c5cc6c(nn5)-c5ccccc5CCC6)n4)cc3C2)CC1 [Compound 215] , no commentary.
Reply | > 6.00

Ask | Name the recorded pIC50 of the molecule listed here: Cc1csc2c(-n3nc(Nc4cnc5c(c4)CC4(CCC5)OCCO4)nc3N)nc(Cl)nc12 [Compound 240]
Reply | > 6.00
